- ASSAY_COMMENT: NCI Yeast Anticancer Drug Screen. Data for the rad50 strain (AID 155);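 further: 0% = growth of vehicle-only cultures of the same strain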
- DETAILS: S. cerevisiae rad50 strain growth inhibition; at 50.0 µM; active compounds read high
Compounds without any hit were thinned out: in the full panel of roughly 79,000, 15% have a hit.
Listing of recorded growth inhibition by entry.
Report the value in % with no unit label.

C=CC[N+](C)(CC=C)CC[N+](C)(CC=C)CC=C: -15
CCOc1ccc(-n2c(=O)c(N=Nc3ccccc3Cl)c(O)n(-c3ccc(Br)cc3)c2=S)cc1: 38.5
CCCCCCCCCCCCCCCCC(C)=O: 2.2

Record request: growth inhibition value, item C=C(Cl)C(Cl)(CBr)CCC(Cl)C(C)C (configuration not stated)
65

Record request: growth inhibition value, item CC(C)=CC1C(CO)C1(C)C (configuration not stated)
-7.8

Record request: growth inhibition value, item O=C1OC(=O)C2C3CC(C4OC34)C12 (configuration not stated)
-12.2

Record request: growth inhibition value, item CC(=O)C1CCC2C3CCC4CC5(CCC4(C)C3C(=O)CC12C)NC(C(=O)O)CS5 (configuration not stated)
2.25

Record request: growth inhibition value, item c1ccc2cc(C3OCCCO3)ccc2c1
19.4

Record request: growth inhibition value, item Cc1ccc(Nc2nnc(-c3ccc4c(c3)OCO4)o2)c(C)c1
22.8

Record request: growth inhibition value, item CN(C)CC1(Cc2ccccc2)CCC(Cc2ccccc2)C1=O (configuration not stated)
85.5

Record request: growth inhibition value, item CC(C)CCCC(C)C1CCC2C3CC=C4CC(OC(=O)c5ccncc5)CCC4(C)C3CCC12C (configuration not stated)
3.2

Record request: growth inhibition value, item O=C(O)CCC1COc2ccccc2O1 (configuration not stated)
-12.2

----------
- ASSAY_COMMENT: NCI Yeast Anticancer Drug Screen. Data for the rad50 strain (AID 155);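 further: 0% = growth of vehicle-only cultures of the same strain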
- DETAILS: S. cerevisiae rad50 strain growth inhibition; at 50.0 µM; active compounds read high
This is part of a sample that, as a whole, favours compounds with a hit. Of some 79,000 tested, about 15% had one in any assay.
Listing of recorded growth inhibition by entry.
Report the value in % with no unit label.

COc1cc(C(=O)OCCOC(=O)c2ccc(O)c(OC)c2)ccc1O: 45.4
O=C(O)COc1ccc(C(=O)O)cc1: 5.6
C[C@H](CCC(=O)O)[C@H]1CC[C@H]2[C@@H]3[C@@H](O)C[C@@H]4C[C@H](O)CC[C@]4(C)[C@H]3C[C@H](O)[C@]12C: -3.3
CCOC(=O)c1cc2c(nc1N)C(=O)CCCC2: -34.5

Next, consider the following molecule.
Record request: growth inhibition value, item COc1cc(/C=C/C(=O)c2sc(-n3nc(-c4ccccc4)cc3-c3ccccc3)nc2C)ccc1O
6

----------
Listing of recorded growth inhibition by entry.
- ASSAY_COMMENT: NCI Yeast Anticancer Drug Screen. Data for the cln2 rad14 strain (AID 165);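 further: 0% = growth equal to vehicle treated cultures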
- DETAILS: S. cerevisiae cln2 rad14 strain, at 50.0 µM, active compounds read high
This is part of a sample that, as a whole, favours compounds with a hit. Of some 79,000 tested, about 15% had one in any assay.
Report the value in % with no unit label.

Here is how some compounds turned out for growth inhibition.
NC(=O)c1ccccc1NC(=O)CCCOc1ccccc1: -5.8
Cc1ccc(S(=O)(=O)N2c3ccccc3[C@H]3CCC=C[C@H]32)cc1: -20.6
COC(=O)c1cncn1C1CC1: -58.5
O=CC(C(=O)c1ccccc1[N+](=O)[O-])c1ccccc1 (centres undefined): 15.8

Record request: growth inhibition value, item COc1cc2c(cc1OC)C(Cl)C(c1ccc(Cl)c(Cl)c1)=C2Cl (centres undefined)
-0.25

Record request: growth inhibition value, item CCCCCCCc1ccccc1
3.95

Record request: growth inhibition value, item OC1(c2ccccc2)C(c2ccccc2)=C(c2ccccc2)C(c2ccc(CCCCCCCCc3ccc(C4=C(c5ccccc5)C(O)(c5ccccc5)C(c5ccccc5)=C4c4ccccc4)cc3)cc2)=C1c1ccccc1 (centres undefined)
-28.1

Record request: growth inhibition value, item Nc1nc2nc(N=Nc3ccccc3)[nH]c2c(=O)[nH]1
9.25

Record request: growth inhibition value, item NNC(=O)CCC(=O)NC1C2CC3CC(C2)CC1C3 (centres undefined)
-0.85

Record request: growth inhibition value, item Cc1cc(C)nc(N(C)CCN2CCCCC2)c1
-25.1
